Data credit: patent US6518302B1

- System: HL-60 (ATCC CCL-240) cells
- assayOverview: Viability of HL-60 cells by Trypan Blue staining
- Format: cell-based
- conditionNotes: Homo sapiens, 48 hours, read-out: Viability50, concentration that results in a viability of 50%
parameter: IC50 (µM)
The reply should be a number in µM, with the unit left off.

See these solved cases before continuing.
[
  {
    "compound": "O=C[C@H](O)[C@H]1OC[C@@H](O)[C@@H]1O [Compound (2), 3,6-anhydro-D-galactose, reference compound]",
    "IC50 / µM": 3400
  },
  {
    "compound": "OCC1OC(OC2C(CO)OC(OC3C(CO)OC(OC4C(O)COC4C(O)C(O)O)C(O)C3O)C(O)C2O)C(O)C(O)C1O (stereo not shown)",
    "IC50 / µM": 150
  },
  {
    "compound": "O=C[C@H](O)[C@H]1OC[C@@H](O)[C@@H]1OC(=O)c1ccccc1 [Compound (7), 4-O-benzoyl-3,6-anhydro-D-galactose]",
    "IC50 / µM": 101
  }
]

# ---- query compound ----
Requested read-out: IC50. Entry: CC(=O)OCC1OC(OC2C(O)COC2C(O)C(O)O)C(OC(C)=O)C(OC(C)=O)C1OC(C)=O (stereo not shown) 189
